Cited source for all entries: ChEMBL document CHEMBL1629526

Below: a set of entries, each annotated with reported EC50.
Test system: Human alphaherpesvirus 1
Test: Antiviral activity against thymidine kinase deficient acyclovir-resistant Herpes simplex virus 1 KOS infected in HEL cells assessed as inhibition of virus induced cytopathicity after 2 to 4 days by MTS assay
Format: functional, organism-based
Details: Human alphaherpesvirus 1, KOS

molecular.string: O=C(c1cccc(O)c1)n1c(-c2ccc(S(=O)(=O)O)cc2)nc2ccccc21
system.tested: Human alphaherpesvirus 1
EC50: > 100 µg/mL
//
molecular.string: C=CC(=O)n1c(-c2ccc(S(=O)(=O)O)cc2)nc2ccccc21
system.tested: Human alphaherpesvirus 1
EC50: > 20 µg/mL
//
molecular.string: O=C(c1ccccc1Cl)n1c(-c2ccc(S(=O)(=O)O)cc2)nc2ccccc21
system.tested: Human alphaherpesvirus 1
EC50: > 100 µg/mL
//
molecular.string: O=C(c1ccc(O)cc1O)n1c(-c2ccc(S(=O)(=O)O)cc2)nc2ccccc21
system.tested: Human alphaherpesvirus 1
EC50: > 20 µg/mL
//
molecular.string: O=C(c1cccnc1)n1c(-c2ccc(S(=O)(=O)O)cc2)nc2ccccc21
system.tested: Human alphaherpesvirus 1
EC50: > 100 µg/mL
//
molecular.string: Cc1ccc(C(=O)n2c(-c3ccc(S(=O)(=O)O)cc3)nc3ccccc32)cc1
system.tested: Human alphaherpesvirus 1
EC50: > 100 µg/mL
//
molecular.string: CCCCCCCCCCCCCCCC(=O)n1c(-c2ccc(S(=O)(=O)O)cc2)nc2ccccc21
system.tested: Human alphaherpesvirus 1
EC50: > 100 µg/mL
//
molecular.string: Nc1nc2c(ncn2COC(CO)CO)c(=O)[nH]1
system.tested: Human alphaherpesvirus 1
EC50: 58 µg/mL
//
molecular.string: Cc1ccccc1C(=O)n1c(-c2ccc(S(=O)(=O)O)cc2)nc2ccccc21
system.tested: Human alphaherpesvirus 1
EC50: > 100 µg/mL
//
molecular.string: O=C(c1ccc(Cl)cc1)n1c(-c2ccc(S(=O)(=O)O)cc2)nc2ccccc21
system.tested: Human alphaherpesvirus 1
EC50: > 100 µg/mL

====

Below: a set of entries, each annotated with reported EC50.
System: Coxsackievirus B4
Test: Antiviral activity against coxsackievirus B4 infected in human HeLa cells assessed as inhibition of virus induced cytopathicity by visual scoring of CPE
Type: functional, organism-based
Conditions: Enterovirus B

compound: NC(=O)c1ncn([C@@H]2O[C@H](CO)[C@@H](O)[C@H]2O)n1 [RIBAVIRIN]
system.tested: Coxsackievirus B4
EC50: 50 µg/mL

compound: Cc1ccc(C(=O)n2c(-c3ccc(S(=O)(=O)O)cc3)nc3ccccc32)cc1
system.tested: Coxsackievirus B4
EC50: > 100 µg/mL

compound: Cc1ccccc1C(=O)n1c(-c2ccc(S(=O)(=O)O)cc2)nc2ccccc21
system.tested: Coxsackievirus B4
EC50: > 100 µg/mL

compound: Nc1ccc(C(=O)n2c(-c3ccc(S(=O)(=O)O)cc3)nc3ccccc32)cc1
system.tested: Coxsackievirus B4
EC50: > 100 µg/mL

compound: C=C(C)C(=O)n1c(-c2ccc(S(=O)(=O)O)cc2)nc2ccccc21
system.tested: Coxsackievirus B4
EC50: > 100 µg/mL

compound: CCCCC(=O)n1c(-c2ccc(S(=O)(=O)O)cc2)nc2ccccc21
system.tested: Coxsackievirus B4
EC50: > 100 µg/mL

compound: C/C=C/C(=O)n1c(-c2ccc(S(=O)(=O)O)cc2)nc2ccccc21
system.tested: Coxsackievirus B4
EC50: > 100 µg/mL

compound: O=C(c1cccnc1)n1c(-c2ccc(S(=O)(=O)O)cc2)nc2ccccc21
system.tested: Coxsackievirus B4
EC50: > 100 µg/mL

compound: CCCCCCCCCCCCCCCC(=O)n1c(-c2ccc(S(=O)(=O)O)cc2)nc2ccccc21
system.tested: Coxsackievirus B4
EC50: > 100 µg/mL

compound: Nc1ccccc1C(=O)n1c(-c2ccc(S(=O)(=O)O)cc2)nc2ccccc21
system.tested: Coxsackievirus B4
EC50: > 20 µg/mL

compound: O=C(c1ccccc1)n1c(-c2ccc(S(=O)(=O)O)cc2)nc2ccccc21
system.tested: Coxsackievirus B4
EC50: > 100 µg/mL
